Test system: Escherichia coli TOP10;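 also: peptides expressed intracellularly from a pBAD plasmid library in pooled LB shake-flask culture, induced with 0.3% L-arabinose, DNA abundance read by NGS, three biological replicates, DESeq2 with apeglm shrinkage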
experimental-protocol: shrunken log2 fold change of peptide-encoding DNA abundance (4.5 h post-induction vs induction); higher = less antimicrobial activity (less host growth inhibition)
measurement-context: time post-induction: 4.5 h; library: site-saturation at positions 5, 18, 19, 20
Quick rule: shrunken log2 fold change of at least 0.1 means MET, below that means NOT MET.

[[record]]
sequence_code = "RRIRARPPRLPRPRPRPYMCPRP"
group = "NOT MET"

[[record]]
sequence_code = "RRIRFRPPRLPRPRPRPNIHPRP"
group = "NOT MET"

[[record]]
sequence_code = "RRIRERPPRLPRPRPRPKPLPRP"
group = "MET"

[[record]]
sequence_code = "RRIRMRPPRLPRPRPRPWCNPRP"
group = "NOT MET"

[[record]]
sequence_code = "RRIRMRPPRLPRPRPRPPFTPRP"
group = "MET"

[[record]]
sequence_code = "RRIRGRPPRLPRPRPRPKYWPRP"
group = "MET"

[[record]]
sequence_code = "RRIRKRPPRLPRPRPRPSAYPRP"
group = "NOT MET"

[[record]]
sequence_code = "RRIRERPPRLPRPRPRPRPWPRP"
group = "MET"

[[record]]
sequence_code = "RRIRTRPPRLPRPRPRPSCHPRP"
group = "NOT MET"

[[record]]
sequence_code = "RRIRVRPPRLPRPRPRPRGCPRP"
group = "MET"

[[record]]
sequence_code = "RRIRVRPPRLPRPRPRPHYQPRP"
group = "NOT MET"

[[record]]
sequence_code = "RRIRFRPPRLPRPRPRPGQEPRP"
group = "NOT MET"

[[record]]
sequence_code = "RRIRIRPPRLPRPRPRPQHAPRP"
group = "MET"

